Entry source: the NIST ThermoML archive (doi:10.1016/j.fluid.2018.09.024)

Reported activity coefficient is given for each of the following molecules.
Experiment: activity coefficient (dimensionless); of the first substance listed, at infinite dilution; xn = mol fraction of the nth substance listed
Conditions: 338.15 K; 101.33 kPa; Liquid; Chromatography; x1 = 0
Property measured: activity coefficient

C1CCOC1 [tetrahydrofuran] + CCCCCCCCCCCC[N+](C)(C)CCOc1ccccc1.N#C[N-]C#N
0.726
COC(C)=O [methyl ethanoate] + CCCCCCCCCCCC[N+](C)(C)CCOc1ccccc1.N#C[N-]C#N
1.06
c1ccccc1 [benzene] + CCCCCCCCCCCC[N+](C)(C)CCOc1ccccc1.N#C[N-]C#N
0.87
COC(C)(C)C [2-methoxy-2-methylpropane] + CCCCCCCCCCCC[N+](C)(C)CCOc1ccccc1.O=S(=O)([N-]S(=O)(=O)C(F)(F)F)C(F)(F)F
1.15
CCC(C)(C)C [2,2-dimethylbutane] + CCCCCCCCCCCC[N+](C)(C)CCOc1ccccc1.N#C[N-]C#N
5.95
CC#N [acetonitrile] + CCCCCCCCCCCC[N+](C)(C)CCOc1ccccc1.O=S(=O)([N-]S(=O)(=O)C(F)(F)F)C(F)(F)F
0.506
C=COC(C)=O [vinyl acetate] + CCCCCCCCCCCC[N+](C)(C)CCOc1ccccc1.N#C[N-]C#N
1.28
CCC[N+](=O)[O-] [1-nitropropane] + CCCCCCCCCCCC[N+](C)(C)CCOc1ccccc1.O=S(=O)([N-]S(=O)(=O)C(F)(F)F)C(F)(F)F
0.77
CC(C)O [propan-2-ol] + CCCCCCCCCCCC[N+](C)(C)CCOc1ccccc1.N#C[N-]C#N
0.504
C1=CCCCC1 [cyclohexene] + CCCCCCCCCCCC[N+](C)(C)CCOc1ccccc1.N#C[N-]C#N
2.19
C#CCCC [1-pentyne] + CCCCCCCCCCCC[N+](C)(C)CCOc1ccccc1.O=S(=O)([N-]S(=O)(=O)C(F)(F)F)C(F)(F)F
1.19
C=CCCC [1-pentene] + CCCCCCCCCCCC[N+](C)(C)CCOc1ccccc1.O=S(=O)([N-]S(=O)(=O)C(F)(F)F)C(F)(F)F
1.93
C1CCCCCCC1 [cyclooctane] + CCCCCCCCCCCC[N+](C)(C)CCOc1ccccc1.O=S(=O)([N-]S(=O)(=O)C(F)(F)F)C(F)(F)F
2.65
C1CCOC1 [tetrahydrofuran] + CCCCCCCCCCCC[N+](C)(C)CCOc1ccccc1.O=S(=O)([N-]S(=O)(=O)C(F)(F)F)C(F)(F)F
0.418
CCCC(C)=O [pentan-2-one] + CCCCCCCCCCCC[N+](C)(C)CCOc1ccccc1.N#C[N-]C#N
0.936
CCC(C)(C)C [2,2-dimethylbutane] + CCCCCCCCCCCC[N+](C)(C)CCOc1ccccc1.O=S(=O)([N-]S(=O)(=O)C(F)(F)F)C(F)(F)F
2.99
CCCCCO [pentan-1-ol] + CCCCCCCCCCCC[N+](C)(C)CCOc1ccccc1.N#C[N-]C#N
0.491
C1CCCCC1 [cyclohexane] + CCCCCCCCCCCC[N+](C)(C)CCOc1ccccc1.O=S(=O)([N-]S(=O)(=O)C(F)(F)F)C(F)(F)F
2.08
CCC(C)(C)OC [2-methoxy-2-methylbutane] + CCCCCCCCCCCC[N+](C)(C)CCOc1ccccc1.N#C[N-]C#N
2.56
C#CCCCC [1-hexyne] + CCCCCCCCCCCC[N+](C)(C)CCOc1ccccc1.O=S(=O)([N-]S(=O)(=O)C(F)(F)F)C(F)(F)F
1.39
CCC(C)CC [3-methylpentane] + CCCCCCCCCCCC[N+](C)(C)CCOc1ccccc1.N#C[N-]C#N
5.37
CCCOCCC [dipropyl ether] + CCCCCCCCCCCC[N+](C)(C)CCOc1ccccc1.N#C[N-]C#N
3.46
Cc1cccc(C)c1 [1,3-dimethylbenzene] + CCCCCCCCCCCC[N+](C)(C)CCOc1ccccc1.N#C[N-]C#N
1.44
Cc1cccc(C)c1 [1,3-dimethylbenzene] + CCCCCCCCCCCC[N+](C)(C)CCOc1ccccc1.O=S(=O)([N-]S(=O)(=O)C(F)(F)F)C(F)(F)F
0.957
CC(C)=O [acetone] + CCCCCCCCCCCC[N+](C)(C)CCOc1ccccc1.O=S(=O)([N-]S(=O)(=O)C(F)(F)F)C(F)(F)F
0.375
CCCc1ccccc1 [propylbenzene] + CCCCCCCCCCCC[N+](C)(C)CCOc1ccccc1.N#C[N-]C#N
1.77
CC(C)CC(C)(C)C [2,2,4-trimethylpentane] + CCCCCCCCCCCC[N+](C)(C)CCOc1ccccc1.O=S(=O)([N-]S(=O)(=O)C(F)(F)F)C(F)(F)F
3.77

---

Assay: activity coefficient (dimensionless); of the first substance listed, at infinite dilution; xn = mol fraction of the nth substance listed
Settings: 338.15 K; 101.33 kPa; Liquid; Chromatography; x1 = 0
Quick list: activity coefficient per entry.
Property measured: activity coefficient

Cc1ccccc1 [toluene] + CCCCCCCCCCCC[N+](C)(C)CCOc1ccccc1.N#C[N-]C#N
1.1
CCC(=O)OC [methyl propanoate] + CCCCCCCCCCCC[N+](C)(C)CCOc1ccccc1.N#C[N-]C#N
1.16
CCCCCCC [heptane] + CCCCCCCCCCCC[N+](C)(C)CCOc1ccccc1.O=S(=O)([N-]S(=O)(=O)C(F)(F)F)C(F)(F)F
3.6
C1CCCCCCC1 [cyclooctane] + CCCCCCCCCCCC[N+](C)(C)CCOc1ccccc1.N#C[N-]C#N
3.63
C#CCCCCC [1-heptyne] + CCCCCCCCCCCC[N+](C)(C)CCOc1ccccc1.O=S(=O)([N-]S(=O)(=O)C(F)(F)F)C(F)(F)F
1.61
CCC(=O)CC [pentan-3-one] + CCCCCCCCCCCC[N+](C)(C)CCOc1ccccc1.N#C[N-]C#N
0.947
CCO [ethanol] + CCCCCCCCCCCC[N+](C)(C)CCOc1ccccc1.N#C[N-]C#N
0.421

---

Assay: activity coefficient (dimensionless); of the first substance listed, at infinite dilution; xn = mol fraction of the nth substance listed
Settings: 338.15 K; 101.33 kPa; Liquid; Chromatography; x1 = 0
Measured activity coefficient accompanies every entry in the list below.
Property measured: activity coefficient

C=CCCCCC [1-heptene] + CCCCCCCCCCCC[N+](C)(C)CCOc1ccccc1.O=S(=O)([N-]S(=O)(=O)C(F)(F)F)C(F)(F)F
2.67
CC#N [acetonitrile] + CCCCCCCCCCCC[N+](C)(C)CCOc1ccccc1.N#C[N-]C#N
0.766
CCC(C)O (configuration not stated) [butan-2-ol] + CCCCCCCCCCCC[N+](C)(C)CCOc1ccccc1.O=S(=O)([N-]S(=O)(=O)C(F)(F)F)C(F)(F)F
1.17
CCC(C)(C)OC [2-methoxy-2-methylbutane] + CCCCCCCCCCCC[N+](C)(C)CCOc1ccccc1.O=S(=O)([N-]S(=O)(=O)C(F)(F)F)C(F)(F)F
1.36
CC(C)c1ccccc1 [isopropylbenzene] + CCCCCCCCCCCC[N+](C)(C)CCOc1ccccc1.O=S(=O)([N-]S(=O)(=O)C(F)(F)F)C(F)(F)F
1.24
O [water] + CCCCCCCCCCCC[N+](C)(C)CCOc1ccccc1.N#C[N-]C#N
0.479
CCCCCCCCC [nonane] + CCCCCCCCCCCC[N+](C)(C)CCOc1ccccc1.O=S(=O)([N-]S(=O)(=O)C(F)(F)F)C(F)(F)F
4.96

---

Test: activity coefficient (dimensionless); of the first substance listed, at infinite dilution; xn = mol fraction of the nth substance listed
Details: 368.15 K; 101.33 kPa; Liquid; Chromatography; x1 = 0
Property: activity coefficient; scope: individual compounds
Property measured: activity coefficient

C#CCCCCC [1-heptyne] + CCCCCCCCCCCC[N+](C)(C)CCOc1ccccc1.N#C[N-]C#N
2.3
CCC(C)CC [3-methylpentane] + CCCCCCCCCCCC[N+](C)(C)CCOc1ccccc1.N#C[N-]C#N
5.5
CO [methanol] + CCCCCCCCCCCC[N+](C)(C)CCOc1ccccc1.O=S(=O)([N-]S(=O)(=O)C(F)(F)F)C(F)(F)F
0.964
C=CCCCCC [1-heptene] + CCCCCCCCCCCC[N+](C)(C)CCOc1ccccc1.N#C[N-]C#N
4.51

---

Assay: activity coefficient (dimensionless); of the first substance listed, at infinite dilution; xn = mol fraction of the nth substance listed
Settings: 348.15 K; 101.33 kPa; Liquid; Chromatography; x1 = 0
Overview of reported activity coefficient across a group of compounds:
Property measured: activity coefficient

C1=CCCCC1 [cyclohexene] + CCCCCCCCCCCC[N+](C)(C)CCOc1ccccc1.N#C[N-]C#N
2.22
CCOCC [diethyl ether] + CCCCCCCCCCCC[N+](C)(C)CCOc1ccccc1.O=S(=O)([N-]S(=O)(=O)C(F)(F)F)C(F)(F)F
1.24
CCO [ethanol] + CCCCCCCCCCCC[N+](C)(C)CCOc1ccccc1.N#C[N-]C#N
0.429
CCCC=O [butanal] + CCCCCCCCCCCC[N+](C)(C)CCOc1ccccc1.O=S(=O)([N-]S(=O)(=O)C(F)(F)F)C(F)(F)F
0.81
C#CCCCCC [1-heptyne] + CCCCCCCCCCCC[N+](C)(C)CCOc1ccccc1.O=S(=O)([N-]S(=O)(=O)C(F)(F)F)C(F)(F)F
1.68
CO [methanol] + CCCCCCCCCCCC[N+](C)(C)CCOc1ccccc1.O=S(=O)([N-]S(=O)(=O)C(F)(F)F)C(F)(F)F
1.01
CC(C)CO [2-methyl-1-propanol] + CCCCCCCCCCCC[N+](C)(C)CCOc1ccccc1.N#C[N-]C#N
0.469
COC(C)(C)C [2-methoxy-2-methylpropane] + CCCCCCCCCCCC[N+](C)(C)CCOc1ccccc1.O=S(=O)([N-]S(=O)(=O)C(F)(F)F)C(F)(F)F
1.21
CCCCCC [hexane] + CCCCCCCCCCCC[N+](C)(C)CCOc1ccccc1.N#C[N-]C#N
5.3
C#CCCCCCC [1-octyne] + CCCCCCCCCCCC[N+](C)(C)CCOc1ccccc1.N#C[N-]C#N
2.46
C=CCCCC [hex-1-ene] + CCCCCCCCCCCC[N+](C)(C)CCOc1ccccc1.N#C[N-]C#N
3.76
C=CCCC [1-pentene] + CCCCCCCCCCCC[N+](C)(C)CCOc1ccccc1.N#C[N-]C#N
3.42
C=CCCCCCCCC [1-decene] + CCCCCCCCCCCC[N+](C)(C)CCOc1ccccc1.O=S(=O)([N-]S(=O)(=O)C(F)(F)F)C(F)(F)F
4.4
